Ok so here's the combined literature set: pIC50 for UniProt:O14744.
pIC50: −log10 of the molar value.

molecule: Cn1ccc(-c2cn(-c3cncc(COC(=O)Nc4cccc(N5CCC5)n4)c3)c3ncnc(N)c23)n1
pIC50: < 6.00
--
molecule: O[C@H]1[C@H](n2ccc3c(Cl)ncnc32)C[C@@]2(CNC(c3ccc4cc(Br)c(Cl)nc4c3)C2)[C@H]1O (single isomer, unassigned)
pIC50: < 6.30
--
molecule: CC1(C)CNc2nc3cc(CC[C@H]4C[C@@H](n5ccc6c(N)ncnc65)[C@H](O)[C@@H]4O)ccc3cc21
pIC50: > 9.00
--
molecule: CNc1ccc2ccc(OCc3cncc(-n4ccc5c(C)ncnc54)c3)cc2n1
pIC50: < 6.00
--
molecule: CN1CCN(C(=O)c2cccc(Cn3ncc4ccc(-c5ccc(CNCCN)cc5)cc43)c2)CC1
pIC50: 7.13
--
molecule: CNc1ccc2ccc(OCc3cc(-n4cc(Cl)c5c(N)ncnc54)ccc3OC)cc2n1
pIC50: < 6.00

Please look at the following molecule next.
For the record Nc1ncnc2c1ncn2[C@@H]1O[C@]2(C[C@@H](Oc3ccc4cc(Br)cnc4c3)C2)[C@@H](O)[C@H]1O , what value of pIC50 is listed for UniProt:O14744?
5.52

###

Ok so here's the combined literature set: pIC50 for UniProt O14744.
pIC50: −log10 of the molar value.

Some solved entries appear below for comparison.
smiles.data: Cn1ccc(-c2cn(-c3cncc(COc4ccc5ccc(N6CC(F)(F)C6)nc5c4)c3)c3ncnc(N)c23)n1
readout.value: < 6.00
--
smiles.data: CC(C)[C@@H]1CCc2cc3ccc(CC[C@H]4C[C@@H](n5ccc6c(N)ncnc65)[C@H](O)[C@@H]4O)cc3nc2N1
readout.value: 7.00 to 9.00

Would you kindly share the measured pIC50 for C[C@@H]1COc2cc3ccc(CC[C@H]4C[C@@H](n5ccc6c(N)ncnc65)[C@H](O)[C@@H]4O)cc3nc2N1 ?
> 9.00

###

pIC50: −log10 of the molar value.
Ok so here's the combined literature set: pIC50 for Protein arginine N-methyltransferase 5 (Homo sapiens, UniProt O14744).

Some solved entries appear below for comparison.
smiles.data: C[C@H]1CNc2nc3cc(CC[C@H]4C[C@@H](n5ccc6c(N)ncnc65)[C@H](O)[C@@H]4O)ccc3cc2O1
measured.on: Protein arginine N-methyltransferase 5 (Homo sapiens, UniProt O14744)
pIC50: > 9.00

smiles.data: Nc1ncnc2c1ccn2[C@@H]1O[C@H](CCc2ccc3cc4cn[nH]c4nc3c2)[C@@H](O)[C@H]1O
measured.on: Protein arginine N-methyltransferase 5 (Homo sapiens, UniProt O14744)
pIC50: 7.00 to 9.00

smiles.data: NCCNCc1ccc(-c2ccc3cnn(Cc4ccncc4)c3c2)cc1
measured.on: Protein arginine N-methyltransferase 5 (Homo sapiens, UniProt O14744)
pIC50: 6.77

smiles.data: C=CC(=O)Nc1nc(N)c2ccn(-c3cncc(COc4ccc5ccc(NC)nc5c4)c3)c2n1
measured.on: Protein arginine N-methyltransferase 5 (Homo sapiens, UniProt O14744)
pIC50: < 6.00

smiles.data: Nc1ncnc2c1ccn2[C@@H]1C=C(CCc2cc(C(F)F)c(F)c3c2CNCC3)[C@@H](O)[C@H]1O
measured.on: Protein arginine N-methyltransferase 5 (Homo sapiens, UniProt O14744)
pIC50: 9.02 to 9.60

smiles.data: Cc1c(C(=O)NCc2ccccc2)cc(-c2ccc(CN(C)CCN)cc2)c2cn[nH]c12
measured.on: Protein arginine N-methyltransferase 5 (Homo sapiens, UniProt O14744)
pIC50: 4.65

Would you kindly share the measured pIC50 for Cc1nc(-c2cn(-c3cncc(COc4ccc5ccc(N6CCC6)nc5c4)c3)c3ncnc(N)c23)co1 ?
< 6.00

Would you kindly share the measured pIC50 for CC(C)n1cnc2ccc(-c3ccc(CNCCN)cc3)cc21 ?
6.39
